Test: In vivo pharmacokinetics in mice (plasma and brain, subcutaneous)
Parameters: species or system mouse
Settings: male, C57BL/6, mouse, brain and plasma, sc, 1 mg/kg, mouse, 1 mg/kg s.c.; read-out: unbound brain:plasma ratio
parameter.measured: Kp

>>> df
                 structure_string  assay_result
0  COc1ccc2[nH]cc(CCN3CCCC3)c2c1F          0.91

====

Molecular target: 5-HT1A (Homo sapiens)
Experiment: BRET signaling assay: 5-HT1A-mediated activation of heterotrimeric Gi1 (TRUPATH, HEK293-T)
Details: read-out: Gi BRET EC50
parameter.measured: EC50 (nM)

                 structure_string         assayed_system  value_unit  assay_result
0  COc1ccc2[nH]cc(CCN3CCCCC3)c2c1  5-HT1A (Homo sapiens)          nM          88.5
1  COc1ccc2[nH]cc(CCN3CCCC3)c2c1F  5-HT1A (Homo sapiens)          nM          0.37

====

Target: 5-HT2B (Homo sapiens, UniProt P41595)
Sequence (P41595 whole entry, species assumed): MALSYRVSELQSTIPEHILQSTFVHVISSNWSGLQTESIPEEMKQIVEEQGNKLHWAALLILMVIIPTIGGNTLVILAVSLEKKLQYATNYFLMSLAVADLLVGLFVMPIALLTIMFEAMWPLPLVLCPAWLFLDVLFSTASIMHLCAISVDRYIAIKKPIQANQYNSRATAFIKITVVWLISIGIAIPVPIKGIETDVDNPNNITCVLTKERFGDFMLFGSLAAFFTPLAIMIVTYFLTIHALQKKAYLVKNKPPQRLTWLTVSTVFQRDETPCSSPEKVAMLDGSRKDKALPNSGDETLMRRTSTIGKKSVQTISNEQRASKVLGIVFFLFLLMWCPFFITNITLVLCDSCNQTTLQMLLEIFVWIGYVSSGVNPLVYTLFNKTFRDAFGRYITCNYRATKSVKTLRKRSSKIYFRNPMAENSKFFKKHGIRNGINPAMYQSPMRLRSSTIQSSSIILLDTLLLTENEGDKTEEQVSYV
Assay: IP1 functional assay 5-HT2B
Type: cell-based
EC50 vs 80 nM: less than gives YES; not less than gives NO.

>>> df
                     structure_string                         assayed_system  class_label
0       CCCN(C)CCc1c[nH]c2ccc(OC)cc12  5-HT2B (Homo sapiens, UniProt P41595)           NO
1     CCCN(CCC)CCc1c[nH]c2ccc(OC)cc12  5-HT2B (Homo sapiens, UniProt P41595)          YES
2    CCCN(C)CCc1c[nH]c2ccc(OC)c(F)c12  5-HT2B (Homo sapiens, UniProt P41595)          YES
3     CCN(C)CCc1c[nH]c2ccc(OC)c(F)c12  5-HT2B (Homo sapiens, UniProt P41595)          YES
4  CCCN(CCC)CCc1c[nH]c2ccc(OC)c(F)c12  5-HT2B (Homo sapiens, UniProt P41595)           NO

====

Assay: Mouse brain tissue binding
Type: in vitro ADME
Details: mouse, brain tissue, read-out: % Unbound
parameter.measured: fraction unbound

>>> print(df.to_string())
                                   molecule  parameter_measured  assay_result
0  COc1ccc2[nH]cc(CCN3CCCC3)c2c1F [4-F, 5-MeO-PyrT]    fraction unbound         0.175

====

Molecular target: 5-HT2A (Homo sapiens, UniProt P28223)
Sequence (P28223 whole entry): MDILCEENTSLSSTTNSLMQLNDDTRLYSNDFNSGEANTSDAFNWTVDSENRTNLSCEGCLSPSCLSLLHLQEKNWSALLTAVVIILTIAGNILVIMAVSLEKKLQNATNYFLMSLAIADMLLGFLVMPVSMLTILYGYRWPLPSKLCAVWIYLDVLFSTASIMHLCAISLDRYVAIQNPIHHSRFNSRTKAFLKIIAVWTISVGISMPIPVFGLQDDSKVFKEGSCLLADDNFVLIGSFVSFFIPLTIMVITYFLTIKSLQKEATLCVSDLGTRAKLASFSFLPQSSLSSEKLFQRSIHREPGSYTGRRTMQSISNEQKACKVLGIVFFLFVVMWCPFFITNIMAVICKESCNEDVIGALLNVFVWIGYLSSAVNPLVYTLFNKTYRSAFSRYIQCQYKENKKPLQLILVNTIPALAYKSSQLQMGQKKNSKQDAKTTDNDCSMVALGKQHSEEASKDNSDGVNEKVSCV
Assay: cell-based
Conditions: EC50 (nM), Gq BRET, 5-HT2A WT
parameter.measured: log10 EC50 (log10 of the value in nM)

>>> print(df.to_string())
                structure_string  parameter_measured  assay_result
0    CSc1ccc2[nH]cc(CCN(C)C)c2c1          log10 EC50          1.48
1  CSc1ccc2[nH]cc(CCN3CCCC3)c2c1          log10 EC50          2.24
2  COc1ccc2[nH]cc(CCN3CCCC3)c2c1          log10 EC50          1.91
3   COc1ccc2[nH]cc(CCN(C)C)c2c1F          log10 EC50          1.94
4  CN(C)CCc1c[nH]c2ccc(O)c(F)c12          log10 EC50          0.87

====

Target: 5-HT1A A365N (Homo sapiens, UniProt P08908, A365N)
Construct: expressed in transfected cells; host or cells: HEK293-T
Test: Gi1 BRET at mutant 5-HT1A A365N
Format: cell-based
Details: pEC50, Gi1 BRET, 5-HT1A A365N^6.55
pEC50: −log10 of the molar value.
parameter.measured: pEC50

In [3]: df
Out[3]:
                                   compound  assay_result
0  CSc1ccc2[nH]cc(CCN(C)C)c2c1 [Compound 67]          7.52

====

Assay: Human plasma protein binding
Format: in vitro ADME
Details: human, plasma, read-out: % Unbound
parameter.measured: fraction unbound

>>> print(df.to_string())
                                   molecule  assay_result
0  COc1ccc2[nH]cc(CCN3CCCC3)c2c1F [4-F, 5-MeO-PyrT]          0.74

====

Biological target: 5-HT1A N386V (Homo sapiens, UniProt P08908, N386V)
Construct: expressed in transfected cells; host or cells: HEK293-T
Sequence (P08908 1-422 N386V): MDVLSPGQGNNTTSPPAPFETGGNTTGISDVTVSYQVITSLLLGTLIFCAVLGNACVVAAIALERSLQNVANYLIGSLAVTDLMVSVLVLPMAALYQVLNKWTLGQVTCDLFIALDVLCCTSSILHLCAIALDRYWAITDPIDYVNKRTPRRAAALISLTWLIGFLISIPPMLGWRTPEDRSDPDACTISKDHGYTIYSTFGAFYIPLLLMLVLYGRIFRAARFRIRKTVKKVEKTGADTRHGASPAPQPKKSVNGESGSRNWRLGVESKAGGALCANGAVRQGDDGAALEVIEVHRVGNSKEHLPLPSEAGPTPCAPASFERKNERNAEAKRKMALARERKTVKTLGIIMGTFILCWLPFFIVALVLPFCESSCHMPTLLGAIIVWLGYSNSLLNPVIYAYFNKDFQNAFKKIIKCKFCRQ
Assay: Gi1 BRET at mutant 5-HT1A N386V
Assay type: cell-based
Details: Gi1 BRET, 5-HT1A N386V^7.39; read-out: EC50
pEC50: −log10 of the molar value.
parameter.measured: pEC50

                 structure_string  assay_result
0  COc1ccc2[nH]cc(CCN3CCCC3)c2c1F          8.52

====

Molecular target: 5-HT2A (Homo sapiens)
Settings: read-out: Gq BRET EC50
parameter.measured: EC50 (nM)

In [3]: df
Out[3]:
                 structure_string  assay_result
0  COc1ccc2[nH]cc(CCN3CCCC3)c2c1F           300

====

Experiment: In vivo pharmacokinetics in mice (plasma and brain, subcutaneous)
Set-up: species or system mouse
Conditions: male, C57BL/6, mouse, plasma, sc, 1 mg/kg, mouse plasma, 1 mg/kg SC; read-out: Total Cmax (ng/mL), Plasma
parameter.measured: Cmax

>>> print(df.to_string())
                                   compound  assay_result
0  COc1ccc2[nH]cc(CCN3CCCC3)c2c1F [4-F, 5-MeO-PyrT]      44 ng/mL

====

Test: Mouse brain tissue binding
Assay type: in vitro ADME
parameter.measured: recovery (%)

                                   compound  assay_result
0  COc1ccc2[nH]cc(CCN3CCCC3)c2c1F [4-F, 5-MeO-PyrT]            88

====

Molecular target: 5-HT1A A365N (Homo sapiens, UniProt P08908, A365N)
Construct: expressed in transfected cells; host or cells: HEK293-T
Sequence (P08908 1-422 A365N): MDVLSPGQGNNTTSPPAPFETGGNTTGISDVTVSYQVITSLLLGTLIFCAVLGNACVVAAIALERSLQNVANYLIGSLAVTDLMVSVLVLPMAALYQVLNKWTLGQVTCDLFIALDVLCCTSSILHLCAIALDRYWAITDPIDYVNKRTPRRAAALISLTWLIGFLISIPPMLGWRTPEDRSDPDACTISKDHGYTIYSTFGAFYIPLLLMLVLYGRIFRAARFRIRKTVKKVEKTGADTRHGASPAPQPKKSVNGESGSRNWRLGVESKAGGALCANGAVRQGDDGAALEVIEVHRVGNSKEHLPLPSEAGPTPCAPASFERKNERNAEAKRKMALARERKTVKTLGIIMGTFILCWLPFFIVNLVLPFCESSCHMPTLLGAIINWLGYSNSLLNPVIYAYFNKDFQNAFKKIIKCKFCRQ
Assay: Gi1 BRET at mutant 5-HT1A A365N
Type: cell-based
parameter.measured: EC50 (µM)

               structure_string  assay_result
0  COc1ccc2[nH]cc(CCN(C)C)c2c1F        0.0201

====

Biological target: human 5-HT1A (Homo sapiens)
Assay: 5-HT1A-mediated cAMP reduction assay (GloSensor, HEK293-T)
Settings: Table 6, commercial ligands
parameter.measured: Efficacy as %5HT 5-HT1A cAMP (%5HT)

In [3]: df
Out[3]:
                                   compound               assayed_system  assay_result
0  O=C1CC2(CCCC2)CC(=O)N1CCCCN1CCN(c2ncccn2)CC1 [Buspirone, buspirone, reference compound]  human 5-HT1A (Homo sapiens)          96.0
1  N#Cc1ccc2[nH]cc(CCCCN3CCN(c4ccc5oc(C(N)=O)cc5c4)CC3)c2c1 [Vilazodone, vilazodone, reference compound]  human 5-HT1A (Homo sapiens)         110.5
2  NCCc1c[nH]c2ccc(O)cc12 [Compound 5-HT, 5-hydroxytryptamine, reference compound]  human 5-HT1A (Homo sapiens)         100.0
3  O=C1[C@@H]2[C@H]3CC[C@H](C3)[C@@H]2C(=O)N1CCCCN1CCN(c2ncccn2)CC1 [Tandospirone, reference compound]  human 5-HT1A (Homo sapiens)          96.3
4  c1ccc2c(N3CCNCC3)cccc2c1 [N-(1-naphthyl)piperazine, N-(1-Napthyl)piperazine, reference compound]  human 5-HT1A (Homo sapiens)         137.0
5  CC1(C)CC(=O)N(CCCCN2CCN(c3ncccn3)CC2)C(=O)C1 [Gepiron, Gepirone, reference compound]  human 5-HT1A (Homo sapiens)          95.4
